Source of measurements: patent US6814960B1

# key: entry, value: MIC values E. coli
System: Escherichia coli NCTC 8196
Test: MIC value in microtitre plates (optical density)
Format: cell-based
Settings: microtitre plate, CASO bouillon, 48 hours at 37° C., optical density 620 nm, ≦20% growth; some data indicative values
readoutName: MIC values E. coli

INSERT INTO results (molecule, result) VALUES
  ('COc1cc(/C=C/c2ccc(-c3ccccc3)cc2)cc(O)c1OC [Comp. of formula 151]', '>100 ppm'),
  ('COc1cc(/C=C/c2cccc3ccccc23)cc(O)c1OC [Comp. of formula 163]', '>100 ppm'),
  ('COc1cc(/C=C/c2ccccc2)ccc1O [Comp. of formula 111]', '>100 ppm'),
  ('Cc1ccc(/C=C/c2cccc(C)c2O)cc1 [Comp. of formula 189]', '100 ppm'),
  ('Oc1ccc(/C=C/c2ccc(Cl)cc2)cc1 [Comp. of formula 119]', '>100 ppm'),
  ('COc1cc(/C=C/c2ccccc2)cc(O)c1OC [Comp. of formula 114]', '100 ppm'),
  ('CCOc1cc(/C=C/c2ccccc2C)ccc1O [Comp. of formula 171]', '>100 ppm'),
  ('Cc1cccc(/C=C/c2ccc(Cl)cc2)c1O [Comp. of formula 128]', '>100 ppm'),
  ('CCOc1cc(/C=C/c2ccc(-c3ccccc3)cc2)ccc1O [Comp. of formula 147]', '>100 ppm');

* * *

System: Escherichia coli NCTC 8196
Test: MIC value in microtitre plates (optical density)
Type: cell-based
Conditions: microtitre plate, CASO bouillon, 48 hours at 37° C., optical density 620 nm, ≦20% growth; some data indicative values
Protocol: Determination of the Minimum Inhibiting Concentration (MIC Value) in Microtitre Plates Casein/soybean flour peptone bouillon for the preparation of the precultures of the test bacteria and yeast. Mycological slant agar for the preculture of moulds. Examples of Test Organisms […] After incubation, the growth is determined by reference to the turbidity of the test batches (optical density) at 620 nm in a microplate reader. […]
Entries annotated with measured MIC values E. coli
readoutName: MIC values E. coli (ppm)

INSERT INTO assay_data (compound, relationsign, result) VALUES
  ('Cc1ccccc1/C=C/c1ccccc1O [Comp. of formula 174]', '=', 100),
  ('Cc1ccccc1/C=C/c1cccc(C)c1O [Comp. of formula 177]', '=', 60),
  ('Cc1ccc(/C=C/c2ccccc2O)cc1 [Comp. of formula 186]', '=', 30),
  ('COc1ccc(/C=C/c2cc(O)c(OC)c(OC)c2)cc1 [Comp. of formula 138]', '>', 100),
  ('COc1ccc(/C=C/c2ccccc2)cc1O [Comp. of formula 109]', '>', 100);

* * *

The following molecules are shown together with reported MIC values E. coli values.
System: Escherichia coli NCTC 8196
Assay: MIC value in microtitre plates (optical density)
Format: cell-based
Settings: microtitre plate, CASO bouillon, 48 hours at 37° C., optical density 620 nm, ≦20% growth; some data indicative values
readoutName: MIC values E. coli

INSERT INTO assay_data (chemicalsmiles, systemname, readoutname, result) VALUES
  ('COc1cc(/C=C/c2ccccc2C)ccc1O', 'Escherichia coli NCTC 8196', 'MIC values E. coli', '>100 ppm'),
  ('COc1ccc(/C=C/c2cccc(C)c2O)cc1', 'Escherichia coli NCTC 8196', 'MIC values E. coli', '>100 ppm'),
  ('Oc1cccc(/C=C/c2cccc3ccccc23)c1', 'Escherichia coli NCTC 8196', 'MIC values E. coli', '15 ppm'),
  ('Cc1ccccc1/C=C/c1cccc(O)c1', 'Escherichia coli NCTC 8196', 'MIC values E. coli', '60 ppm'),
  ('Cc1ccc(/C=C/c2ccc(O)cc2)cc1', 'Escherichia coli NCTC 8196', 'MIC values E. coli', '>100 ppm'),
  ('Oc1ccccc1/C=C/c1ccc(-c2ccccc2)cc1', 'Escherichia coli NCTC 8196', 'MIC values E. coli', '>100 ppm'),
  ('CCOc1cc(/C=C/c2ccc(C)cc2)ccc1O', 'Escherichia coli NCTC 8196', 'MIC values E. coli', '>100 ppm');

* * *

Entries and their MIC values P. aeruginosa values follow.
Test system: Pseudomonas aeruginosa CIP A-22
Assay: MIC value in microtitre plates (optical density)
Assay type: cell-based
Settings: microtitre plate, CASO bouillon, 48 hours at 37° C., optical density 620 nm, ≦20% growth; some data indicative values
readoutName: MIC values P. aeruginosa

INSERT INTO assay_data (chemicalsmiles, result) VALUES
  ('COc1ccc(/C=C/c2ccccc2C)cc1O', '>100 ppm'),
  ('COc1ccc(/C=C/c2ccc(Cl)cc2)cc1O', '>100 ppm'),
  ('Cc1ccc(/C=C/c2cccc(O)c2)cc1', '100 ppm'),
  ('Oc1cccc(/C=C/c2cccc3ccccc23)c1', '>100 ppm'),
  ('COc1cc(/C=C/c2ccc(Cl)cc2)ccc1O', '>100 ppm');

* * *

Entries annotated with measured MIC values P. aeruginosa
System: Pseudomonas aeruginosa CIP A-22
Experiment: MIC value in microtitre plates (optical density)
Assay type: cell-based
Conditions: microtitre plate, CASO bouillon, 48 hours at 37° C., optical density 620 nm, ≦20% growth; some data indicative values
readoutName: MIC values P. aeruginosa

INSERT INTO assay_data (chemicalsmiles, systemname, result) VALUES
  ('COc1ccc(/C=C/c2ccc(OC)c(O)c2)cc1', 'Pseudomonas aeruginosa CIP A-22', '>100 ppm'),
  ('CCOc1cc(/C=C/c2ccccc2)ccc1O', 'Pseudomonas aeruginosa CIP A-22', '>100 ppm'),
  ('CCOc1cc(/C=C/c2cccc3ccccc23)ccc1O', 'Pseudomonas aeruginosa CIP A-22', '>100 ppm'),
  ('COc1ccc(/C=C/c2ccc(-c3ccccc3)cc2)cc1O', 'Pseudomonas aeruginosa CIP A-22', '>100 ppm'),
  ('Oc1ccc(/C=C/c2cccc3ccccc23)cc1', 'Pseudomonas aeruginosa CIP A-22', '>100 ppm'),
  ('CCOc1cc(/C=C/c2ccc(C)cc2)ccc1O', 'Pseudomonas aeruginosa CIP A-22', '>100 ppm'),
  ('Cc1cccc(/C=C/c2ccc(Cl)cc2)c1O', 'Pseudomonas aeruginosa CIP A-22', '>100 ppm'),
  ('Cc1cccc(/C=C/c2ccc(-c3ccccc3)cc2)c1O', 'Pseudomonas aeruginosa CIP A-22', '>100 ppm'),
  ('Cc1cccc(/C=C/c2ccccc2)c1O', 'Pseudomonas aeruginosa CIP A-22', '100 ppm'),
  ('COc1cc(/C=C/c2ccc(-c3ccccc3)cc2)ccc1O', 'Pseudomonas aeruginosa CIP A-22', '>100 ppm'),
  ('Cc1ccccc1/C=C/c1ccc(O)cc1', 'Pseudomonas aeruginosa CIP A-22', '100 ppm'),
  ('Cc1cccc(/C=C/c2cccc3ccccc23)c1O', 'Pseudomonas aeruginosa CIP A-22', '>100 ppm'),
  ('COc1ccc(/C=C/c2cccc3ccccc23)cc1O', 'Pseudomonas aeruginosa CIP A-22', '>100 ppm'),
  ('Cc1ccccc1/C=C/c1cccc(O)c1', 'Pseudomonas aeruginosa CIP A-22', '100 ppm'),
  ('COc1cc(/C=C/c2ccc(C)cc2)ccc1O', 'Pseudomonas aeruginosa CIP A-22', '>100 ppm'),
  ('CCOc1cc(/C=C/c2ccc(-c3ccccc3)cc2)ccc1O', 'Pseudomonas aeruginosa CIP A-22', '>100 ppm'),
  ('CCOc1cc(/C=C/c2ccccc2C)ccc1O', 'Pseudomonas aeruginosa CIP A-22', '>100 ppm'),
  ('CCOc1cc(/C=C/c2ccc(Cl)cc2)ccc1O', 'Pseudomonas aeruginosa CIP A-22', '>100 ppm'),
  ('COc1cc(/C=C/c2ccccc2C)ccc1O', 'Pseudomonas aeruginosa CIP A-22', '>100 ppm'),
  ('COc1ccc(/C=C/c2ccc(C)cc2)cc1O', 'Pseudomonas aeruginosa CIP A-22', '>100 ppm');

* * *

Tested on: Escherichia coli NCTC 8196
Experiment: MIC value in microtitre plates (optical density)
Format: cell-based
Conditions: microtitre plate, CASO bouillon, 48 hours at 37° C., optical density 620 nm, ≦20% growth; some data indicative values
readoutName: MIC values E. coli

INSERT INTO measurements (compound, result) VALUES
  ('COc1ccc(/C=C/c2ccc(O)cc2)cc1 [Comp. of formula 131]', '>100 ppm'),
  ('Oc1ccc(/C=C/c2ccc(-c3ccccc3)cc2)cc1 [Comp. of formula 143]', '>100 ppm'),
  ('COc1ccc(/C=C/c2ccccc2O)cc1 [Comp. of formula 137]', '100 ppm'),
  ('Oc1cccc(/C=C/c2ccc(-c3ccccc3)cc2)c1 [Comp. of formula 145]', '>100 ppm'),
  ('Cc1cccc(/C=C/c2cccc3ccccc23)c1O [Comp. of formula 165]', '>100 ppm');

* * *

Test system: Escherichia coli NCTC 8196
Assay: MIC value in microtitre plates (optical density)
Assay type: cell-based
Conditions: microtitre plate, CASO bouillon, 48 hours at 37° C., optical density 620 nm, ≦20% growth; some data indicative values
List of MIC values E. coli values.
readoutName: MIC values E. coli

INSERT INTO measurements (compound, systemname, result) VALUES
  ('Oc1ccccc1/C=C/c1ccc(Cl)cc1 [Comp. of formula 125]', 'Escherichia coli NCTC 8196', '15 ppm'),
  ('Oc1cccc(/C=C/c2ccc(Cl)cc2)c1 [Comp. of formula 120]', 'Escherichia coli NCTC 8196', '7.5 ppm'),
  ('Cc1ccccc1/C=C/c1ccc(O)cc1 [Comp. of formula 168]', 'Escherichia coli NCTC 8196', '30 ppm'),
  ('COc1ccc(/C=C/c2ccccc2C)cc1O [Comp. of formula 170]', 'Escherichia coli NCTC 8196', '>100 ppm'),
  ('COc1ccc(/C=C/c2ccc(O)c(OC)c2)cc1 [Comp. of formula 135]', 'Escherichia coli NCTC 8196', '>100 ppm'),
  ('COc1cc(/C=C/c2ccccc2C)cc(O)c1OC [Comp. of formula 175]', 'Escherichia coli NCTC 8196', '60 ppm'),
  ('CCOc1cc(/C=C/c2ccccc2)ccc1O [Comp. of formula 110]', 'Escherichia coli NCTC 8196', '>100 ppm'),
  ('COc1cc(/C=C/c2ccc(-c3ccccc3)cc2)ccc1O [Comp. of formula 148]', 'Escherichia coli NCTC 8196', '>100 ppm'),
  ('COc1ccc(/C=C/c2ccc(-c3ccccc3)cc2)cc1O [Comp. of formula 146]', 'Escherichia coli NCTC 8196', '>100 ppm'),
  ('COc1ccc(/C=C/c2ccc(Cl)cc2)cc1O [Comp. of formula 121]', 'Escherichia coli NCTC 8196', '>100 ppm'),
  ('Cc1ccc(/C=C/c2cccc(O)c2)cc1 [Comp. of formula 181]', 'Escherichia coli NCTC 8196', '15 ppm'),
  ('CCOc1cc(/C=C/c2cccc3ccccc23)ccc1O [Comp. of formula 159]', 'Escherichia coli NCTC 8196', '>100 ppm'),
  ('COc1cc(/C=C/c2ccc(C)cc2)cc(O)c1OC [Comp. of formula 187]', 'Escherichia coli NCTC 8196', '>100 ppm'),
  ('COc1cc(/C=C/c2ccc(C)cc2)ccc1O [Comp. of formula 184]', 'Escherichia coli NCTC 8196', '>100 ppm'),
  ('CCOc1cc(/C=C/c2ccc(OC)cc2)ccc1O [Comp. of formula 134]', 'Escherichia coli NCTC 8196', '>100 ppm'),
  ('Oc1ccc(/C=C/c2ccccc2)cc1 [Comp. of formula 107]', 'Escherichia coli NCTC 8196', '>100 ppm'),
  ('COc1ccc(/C=C/c2ccc(OC)c(O)c2)cc1 [Comp. of formula 133]', 'Escherichia coli NCTC 8196', '>100 ppm'),
  ('Cc1cccc(/C=C/c2ccc(-c3ccccc3)cc2)c1O [Comp. of formula 153]', 'Escherichia coli NCTC 8196', '>100 ppm'),
  ('COc1ccc(/C=C/c2cccc(O)c2)cc1 [Comp. of formula 132]', 'Escherichia coli NCTC 8196', '>100 ppm'),
  ('Cc1cccc(/C=C/c2ccccc2)c1O [Comp. of formula 116]', 'Escherichia coli NCTC 8196', '60 ppm');
